System: Escherichia coli
Assay Method Text: Antibacterial activity against Escherichia coli ML35p after 18 hrs
Assay type: functional
Metric Name: MIC (µM)
The response must be a number in µM with no trailing unit.

Looking up CC(=O)NCC(=O)N[C@@H](CCCNC(=N)N)C(=O)N[C@@H](CCCCN)C(=O)N/C(=C/c1ccccc1)C(=O)N[C@@H](Cc1c[nH]cn1)C(=O)N[C@@H](CCCCN)C(=O)N/C(=C\c1ccccc1)C(=O)N[C@@H](Cc1c[nH]c2ccccc12)C(=O)N[C@@H](C)C(=O)NCCCC[C@H](NC(=O)[C@H](C)NC(=O)[C@H](Cc1c[nH]c2ccccc12)NC(=O)/C(=C\c1ccccc1)NC(=O)[C@H](CCCCN)NC(=O)[C@H](Cc1c[nH]cn1)NC(=O)/C(=C\c1ccccc1)NC(=O)[C@H](CCCCN)NC(=O)[C@H](CCCNC(=N)N)NC(=O)CNC(C)=O)C(N)=O , I see its MIC listed as 5

Record summary for CC(=O)NCC(=O)N[C@@H](CCCCN)C(=O)N/C(=C/c1ccccc1)C(=O)N[C@@H](Cc1c[nH]cn1)C(=O)N[C@@H](CCCCN)C(=O)N/C(=C\c1ccccc1)C(=O)N[C@@H](Cc1c[nH]c2ccccc12)C(=O)N[C@@H](C)C(=O)NCCCC[C@H](NC(=O)[C@H](C)NC(=O)[C@H](Cc1c[nH]c2ccccc12)NC(=O)/C(=C\c1ccccc1)NC(=O)[C@H](CCCCN)NC(=O)[C@H](Cc1c[nH]cn1)NC(=O)/C(=C\c1ccccc1)NC(=O)[C@H](CCCCN)NC(=O)CNC(C)=O)C(N)=O : reported MIC = 10
